# Test system: tobacco budworm (Heliothis virescens) larvae
# protocol.notes: Topical assay on tobacco budworm larvae
# Format: in vivo
# condition.set: acetone solution, 1 microg/larva, six larvae, mortality at end of two-day period, 21° C., 60% RH
Below, each of the molecules is paired with its reported Tobacco Budworm Mortality (%) value.

{"molecule": "CO[C@@H]1[C@@H](OC)[C@H](C)O[C@@H](O[C@H]2C[C@H]3[C@@H]4C=C5C(=O)[C@H](C)[C@@H](O[C@H]6CC[C@H](N(C)C)[C@@H](C)O6)CCC[C@H](C(C)C)OC(=O)C[C@H]5[C@@H]4C=C[C@@H]3C2)[C@@H]1OC [Compound 9, 21-desethyl-21-isopropyl spinosyn A]", "units.label": "%", "Tobacco Budworm Mortality (%)": 100}
{"molecule": "CO[C@@H]1[C@@H](OC)[C@H](C)O[C@@H](O[C@H]2C[C@H]3[C@@H]4C=C5C(=O)[C@H](C)[C@@H](O[C@H]6CC[C@H](N(C)C)[C@@H](C)O6)CCC[C@@H](C6CC6)OC(=O)C[C@H]5[C@@H]4C=C[C@@H]3C2)[C@@H]1OC [Compound 1, 21-desethyl-21-cyclopropyl spinosyn A]", "units.label": "%", "Tobacco Budworm Mortality (%)": 100}
{"molecule": "CO[C@@H]1[C@@H](OC)[C@H](C)O[C@@H](O[C@H]2C[C@H]3[C@@H]4C=C5C(=O)[C@H](C)[C@@H](O[C@H]6CC[C@H](N(C)C)[C@@H](C)O6)CCC[C@H](C6CCC6)OC(=O)C[C@H]5[C@@H]4C=C(C)[C@@H]3C2)[C@@H]1OC [Compound 4, 21-desethyl-21-cyclobutyl spinosyn D]", "units.label": "%", "Tobacco Budworm Mortality (%)": 100}
{"molecule": "CCC[C@H]1CCC[C@H](O[C@H]2CC[C@H](N(C)C)[C@@H](C)O2)[C@@H](C)C(=O)C2=C[C@@H]3[C@@H](C=C[C@@H]4C[C@@H](O[C@@H]5O[C@@H](C)[C@H](OC)[C@@H](OC)[C@H]5OC)C[C@@H]34)[C@@H]2CC(=O)O1 [Compound 23, 21-desethyl-21-n-propyl spinosyn A]", "units.label": "%", "Tobacco Budworm Mortality (%)": 100}
{"molecule": "CO[C@@H]1[C@@H](OC)[C@H](C)O[C@@H](O[C@@H]2C[C@H]3CC[C@@H]4[C@@H](C=C5C(=O)[C@H](C)[C@@H](O[C@H]6CC[C@H](N(C)C)[C@@H](C)O6)CCC[C@H](C6CCC6)OC(=O)C[C@H]54)[C@@H]3C2)[C@@H]1OC [Compound 8]", "units.label": "%", "Tobacco Budworm Mortality (%)": 100}
{"molecule": "CO[C@@H]1[C@@H](OC)[C@H](C)O[C@@H](O[C@H]2C[C@H]3[C@@H]4C=C5C(=O)[C@H](C)[C@@H](O[C@H]6CC[C@H](N(C)C)[C@@H](C)O6)CCC[C@@H](C6CCC6)OC(=O)C[C@H]5[C@@H]4C=C[C@@H]3C2)[C@@H]1OC [Compound 3, 21-desethyl-21-cyclobutyl spinosyn A]", "units.label": "%", "Tobacco Budworm Mortality (%)": 83}

The reported numbers originate from patent US9137992B2.
